Data origin, for the record: patent US10428080B2

Target: UniProt:Q14164
Sequence (Q14164 1-716): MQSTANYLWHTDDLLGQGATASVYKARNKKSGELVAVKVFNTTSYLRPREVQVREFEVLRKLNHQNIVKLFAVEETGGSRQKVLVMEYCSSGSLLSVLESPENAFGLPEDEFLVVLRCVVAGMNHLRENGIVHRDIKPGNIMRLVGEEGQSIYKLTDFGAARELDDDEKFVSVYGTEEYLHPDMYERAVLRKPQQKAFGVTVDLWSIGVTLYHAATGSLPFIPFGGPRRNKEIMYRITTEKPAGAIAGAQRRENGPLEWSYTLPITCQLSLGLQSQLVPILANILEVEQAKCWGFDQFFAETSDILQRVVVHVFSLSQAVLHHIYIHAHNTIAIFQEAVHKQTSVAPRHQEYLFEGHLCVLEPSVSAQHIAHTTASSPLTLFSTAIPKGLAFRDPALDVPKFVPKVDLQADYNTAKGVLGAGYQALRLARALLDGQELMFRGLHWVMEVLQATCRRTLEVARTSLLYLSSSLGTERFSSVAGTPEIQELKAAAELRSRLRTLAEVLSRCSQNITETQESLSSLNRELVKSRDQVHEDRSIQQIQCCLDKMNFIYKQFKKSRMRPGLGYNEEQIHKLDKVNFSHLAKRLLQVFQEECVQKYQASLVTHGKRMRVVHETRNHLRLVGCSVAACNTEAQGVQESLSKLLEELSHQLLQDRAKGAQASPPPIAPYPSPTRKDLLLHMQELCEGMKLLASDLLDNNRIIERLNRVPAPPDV
Assay: IKKe Biochemical Assay
Settings: read-out: IKKε IC50
Counter-ions that a name gives are not always drawn.
In this section, each of the compounds is paired with its reported IC50.

Some compounds with known IC50 results, for comparison:
>  <compound>
COc1cc(C(=O)N(C)C)ccc1-c1cc2ncc(F)c(-c3ccc(NC4CCOCC4)c(C#N)c3)c2o1 [Compound 299]

>  <IC50>
< 100 nM

$$$$
>  <compound>
COc1cc(C(=O)NC2CN3CCC2CC3)ccc1-c1cc2nccc(-c3ccc(N4CC[C@@H](F)C4)c(C#N)c3)c2o1 (some centres unmarked) [Compound 146]

>  <IC50>
< 100 nM

$$$$
>  <compound>
COc1cc(C(=O)N2CC3C2CCN3C)ccc1-c1cc2nccc(-c3ccc(OC4CCOCC4)c(C#N)c3)c2o1 (centres unmarked) [Compound 474]

>  <IC50>
< 100 nM

$$$$

# compound COc1cc(C(=O)N2CC3COCC3C2)ccc1-c1cc2nccc(-c3ccc(NC4CCOCC4)c(C#N)c3)c2o1 (centres unmarked) [Compound 513] ; its IC50 = < 100 nM

# compound COc1cc(C(=O)N2CCCCC2)ncc1-c1cc2nccc(-c3cc(C#N)c(OC4CCOCC4)cn3)c2o1 [Compound 383] ; its IC50 = 100 to 1000 nM

# compound COc1cc(C(=O)N2CC(N(C)C)C2)ccc1-c1cc2nccc(-c3ccc(OC4CCOCC4)c(C#N)c3)c2o1 [Compound 24] ; its IC50 = < 100 nM

# compound CN(C)C(=O)c1ccc(-c2cc3nccc(-c4ccc(N5CC[C@H](F)C5)c(C#N)c4)c3o2)nc1 (single isomer, unassigned) [Compound 272, hydrochloride] ; its IC50 = < 100 nM

# compound COc1cc(C(=O)N2CCN(CCO)CC2)ccc1-c1cc2nccc(-c3ccc(OC4CCOCC4)c(C#N)c3)c2o1 [Compound 13] ; its IC50 = < 100 nM

# compound COc1cc(C(=O)N(C)CCO)ncc1-c1cc2nccc(-c3cc(C#N)c(OC4CCOCC4)cn3)c2o1 [Compound 377] ; its IC50 = 100 to 1000 nM

# compound COc1cc(C(=O)N2C[C@H]3C[C@@H]2CN3C)ccc1-c1cc2nccc(-c3ccc(NC4CCOCC4)c(C#N)c3)c2o1 [Compound 517] ; its IC50 = < 100 nM

# compound COc1cc(C(=O)N(C)C)cnc1-c1cc2nccc(-c3cnc(N4CCC(F)C4)c(C#N)c3)c2o1 (centres unmarked) [Compound 489] ; its IC50 = < 100 nM

# compound C[C@@H]1COC[C@@H](C)C1Oc1ccc(-c2ccnc3cc(-c4ccc(C(=O)N(C)C)cc4)oc23)cc1C#N (single isomer, unassigned) [Compound 220, hydrochloride] ; its IC50 = 100 to 1000 nM

# compound COc1cc(C(=O)N(C)C)ccc1-c1cc2nccc(-c3ccc(OC4CCOCC4)c(C#N)n3)c2o1 [Compound 31] ; its IC50 = < 100 nM

# compound C[C@@H]1COC[C@H](C)[C@@H]1Oc1ccc(-c2ccnc3cc(-c4ccc(C(=O)N(C)C)cc4)oc23)cc1C#N (single isomer, unassigned) [Compound 221, hydrochloride] ; its IC50 = 100 to 1000 nM

# compound COc1cc(C(=O)N(C)CCO)cnc1-c1cc2ncc(C3CC3)c(-c3ccc(OC4CCOCC4)c(C#N)c3)c2o1 [Compound 341, hydrochloride] ; its IC50 = > 5000 nM
